test: folding stability dG unfold (combined trypsin and chymotrypsin); higher = more stable
assay.endpoint: folding stability dG unfold (kcal/mol)
Answers are plain numbers, in kcal/mol.

Dear colleague, could you please provide folding stability dG unfold for the sequences listed below?
1. SAGGSAEIEGLEFEIVEVTEVRVLPDGTVEITLRVRLPDGSYLRITITVSPDGTVTIDIELLPADESAGGSA [r15_559_TrROS_Hall]
2. SAGGMKVEKNTIYIEVEKDMSAEEVAKKIAEELKKKGLKVEIKVEKKEDGTKVIRIKVDGKEIEIYASAGGS [r16_771_TrROS_Hall]
3. SAPPRTFIIPIERNPDGNVRLNIRMPGMEIEYEFPPGKDAEDALDKLSPHPGFNVELTEVDPNWIKITFSAG [r14_404_TrROS]
4. SAGGSITTEKSLPETNLTLKTTYEGDTETVEIYHHPESDTPVLLAKETVTFSPDGSVSRKSTVVKIESAGGS [r8_69_JUSTAS]
5. SAGGMSPELKKNKNVEKVIYNKKTGKVFVYNKKTKKLYIFTKNGKKIEIKMSKDEVEKLLKKGFKPISAGGS [r16_745_TrROS_Hall]
6. SAGGSAGGKITINGKEYEIVEVKYDKETNTLHFLIKNKDGTLLKISISPNGKIEIKEVPAEELLSAGGSAGG [r6_699_TrROS_Hall]

[4.48, 1.51, 1.28, -0.483, 2.86, 3.78]

###

For each entry below, report its folding stability dG unfold value.
assay: folding stability dG unfold (combined trypsin and chymotrypsin); higher = more stable
Give bare numbers, in kJ/mol.

Field: example entries. Status: answers known.
sequence.input: SAGAEVEVVELTDEEIEALAKELNPDVTIEVVVVRVPPPPEKVEVRDPETGETVTLTVTPDGEIRAEKSAGG [r19_70_TrROS_Hall]
observed.value: 0.324
//
sequence.input: SAGGGSMLIRRRLLLVERIEDGLLTYDIEEEVYLPLPEPEVPVSVERRPDGSLVLTFPDGTRRLLPRSAGGS [r16_136_JUSTAS]
observed.value: 8.4

# evaluate next
Field request: folding stability dG unfold | item: SAGGDKDNKPPIPTKTITFMLPYDSPEDAKDYAEEIARELFQEEGIPIKVTVQYNPESGWVWVTITIYSAGG [r13_517_TrROS] 18.1

###

assay: folding stability dG unfold (combined trypsin and chymotrypsin); higher = more stable
assay.endpoint: folding stability dG unfold (kcal/mol)
One number for each entry, in kcal/mol.

sequence.input: KVEIKVEIEVKYNKETGKKVVKIRITVKEGSKEEAEKLAAELAKELFGPNVKVTVEYDKETDEITVTLVFPS [r1_273_TrROS_Hall]
assay.endpoint: folding stability dG unfold
observed.value: 3.96

sequence.input: SAGGSAGGSAGGVKYLTLTLPDGTVIKVPVDEPVEIRGEDGRPVEIVEAKVTEGPPGLGSAGGSAGGSAGGS [r10_20_JUSTAS]
assay.endpoint: folding stability dG unfold
observed.value: 1.94

sequence.input: SAGGSAGGSAGGSSVSSLSIKNPPSDPKGILSSVSPEGKVVLTTVNPDGSLTTTVVDVNSAGGSAGGSAGGS [r4_177_JUSTAS]
assay.endpoint: folding stability dG unfold
observed.value: 0.414

sequence.input: SATPYTFTLPDGYVIPAYKLPDGTVRVTAQYYDPVDRKPVGTYEATADPTDGTIELTFPNGDKATITLPDSA [r9_56_TrMRF]
assay.endpoint: folding stability dG unfold
observed.value: 1.01

sequence.input: SAGGSAGGSAGSSMTSTVTEVSTLSNGGTVVTTTTTSYYPSTGTTTTSTTTTTFTDGKAVSAGGSAGGSAGG [r11_337_JUSTAS]
assay.endpoint: folding stability dG unfold
observed.value: 1.05

Consider the following items and state reported folding stability dG unfold for each.
1. SAGGSAAPLPPDETEVRVEYRYDPEKGVLVITTTTTRFTPEGGATPLETRPVVVEVTEEEKKKVELSAGGSA [r15_191_JUSTAS]
2. SAGGPPVTLTLTLTFTETRTVRNPATGETVTVEKVTLTLTITLEPGMSKEQLEALLKELRELFPSLESAGGS [r8_306_TrROS_Hall]

1: 1.17; 2: 5.11
